Test system: CCRIS mutagenicity, Ames/micronucleus/aberration tests
ASSAY_COMMENT: CCRIS mutagenicity studies
CONDITION_DESCRIPTION: Test System: AMES SALMONELLA TYPHIMURIUM; Strain/Indicator: TA1535; Metabolic Activation: RAT, LIVER, S-9, AROCLOR 1254 (10%); Method: PREINCUBATION
Calls of active or inactive are those of the source. No rule for the calls is given here.
Outcome field: choose from Yes (active), No (inactive)

Example entries begin here.
O=C(Nc1cccc2c(=O)c3c(ccc4c5cc(NC(=O)c6ccccc6)c6c(=O)c7ccccc7c(=O)c6c5[nH]c43)c(=O)c12)c1ccccc1; No
Nc1ccc(O)c(N)c1; No
NCCNCCN; No
O=C(OC1CCCCC1)c1ccccc1C(=O)OC1CCCCC1; No
COc1cc(OC)c(OC)cc1C=O; No
O=C(Nc1ccc(Cl)cc1)Nc1ccc(Cl)c(Cl)c1; No
CCCCC(CC)COC(=O)C(C#N)=C(c1ccccc1)c1ccccc1 (stereo not given); No
OCCCBr; Yes
O=C1CSC(=S)N1; No
CC(C)CN; No

Query: Could you please tell me the result logged for `CCNc1nc(Cl)nc(NC(C)C)n1` in this assay?
Result: No

Query: Cool, now O=C(OCC1CO1)c1cccc(C(=O)OCC2CO2)c1 (stereo not given)
Result: Yes
